Cited source: ChEMBL document CHEMBL1177719

inhibition at 34 µM: recorded values
- testedSystem: Aromatase (Homo sapiens, UniProt P11511)
- Sequence (P11511 whole entry): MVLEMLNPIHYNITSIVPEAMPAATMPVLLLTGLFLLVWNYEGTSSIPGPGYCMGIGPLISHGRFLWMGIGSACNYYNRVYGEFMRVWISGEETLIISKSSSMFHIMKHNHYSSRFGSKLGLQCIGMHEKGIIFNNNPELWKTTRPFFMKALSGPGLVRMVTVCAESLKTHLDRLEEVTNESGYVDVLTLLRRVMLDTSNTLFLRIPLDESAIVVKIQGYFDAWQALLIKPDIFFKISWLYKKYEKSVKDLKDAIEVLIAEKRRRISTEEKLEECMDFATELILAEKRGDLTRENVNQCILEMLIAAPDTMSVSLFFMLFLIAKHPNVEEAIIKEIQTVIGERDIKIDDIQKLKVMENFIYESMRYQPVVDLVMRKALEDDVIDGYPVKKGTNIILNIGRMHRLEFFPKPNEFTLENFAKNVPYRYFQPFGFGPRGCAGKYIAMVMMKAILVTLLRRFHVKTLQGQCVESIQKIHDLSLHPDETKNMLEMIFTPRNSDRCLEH
- conditionSummary: read-out: INH
Please state the figure in %; there is no need to write the unit.

* O=S(=O)([O-])Oc1cc(O)cc(/C=C/c2ccc(O)cc2)c1.[K+] | 28.2

What measured inhibition at 34 µM goes with O=S(=O)([O-])Oc1ccc(/C=C/c2cc(OS(=O)(=O)[O-])cc(OS(=O)(=O)[O-])c2)cc1.[K+].[K+].[K+] ?
28.5

One more compound: O=S(=O)([O-])Oc1ccc(/C=C/c2cc(O)cc(O)c2)cc1.[K+]
30.4

One more compound: O=S(=O)([O-])Oc1cc(/C=C/c2ccc(O)cc2)cc(OS(=O)(=O)[O-])c1.[K+].[K+]
20.5

One more compound: O=S(=O)([O-])Oc1ccc(/C=C/c2cc(O)cc(OS(=O)(=O)[O-])c2)cc1.[K+].[K+]
22.5

====

- testedSystem: Prostaglandin G/H synthase 1 (Ovis aries) (UniProt P05979)
- Sequence (P05979 whole entry): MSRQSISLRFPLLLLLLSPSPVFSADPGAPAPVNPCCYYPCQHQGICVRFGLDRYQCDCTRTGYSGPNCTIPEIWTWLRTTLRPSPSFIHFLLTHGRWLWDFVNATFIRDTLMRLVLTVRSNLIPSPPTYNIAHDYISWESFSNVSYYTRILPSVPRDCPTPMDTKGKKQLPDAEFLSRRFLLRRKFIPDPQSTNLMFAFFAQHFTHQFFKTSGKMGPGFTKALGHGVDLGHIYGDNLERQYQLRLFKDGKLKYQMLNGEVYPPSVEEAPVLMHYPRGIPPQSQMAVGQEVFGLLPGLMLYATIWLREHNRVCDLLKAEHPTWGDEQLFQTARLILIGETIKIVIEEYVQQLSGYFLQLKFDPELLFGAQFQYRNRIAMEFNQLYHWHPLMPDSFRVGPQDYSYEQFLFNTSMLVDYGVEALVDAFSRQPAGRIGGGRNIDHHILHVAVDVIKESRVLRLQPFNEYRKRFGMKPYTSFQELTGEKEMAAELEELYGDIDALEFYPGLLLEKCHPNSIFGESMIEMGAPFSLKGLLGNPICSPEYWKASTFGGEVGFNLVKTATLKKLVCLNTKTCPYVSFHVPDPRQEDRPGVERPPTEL
- assayMethodText: Inhibition of sheep seminal vesicles COX1 assessed as PGE2 production at 34 uM after 10 mins by ELISA relative to control
Returns TRUE if the recorded inhibition is greater than or equal to 60%, and FALSE otherwise.

• O=S(=O)([O-])Oc1cc(O)cc(/C=C/c2ccc(O)cc2)c1.[K+] = TRUE
• O=S(=O)([O-])Oc1ccc(/C=C/c2cc(OS(=O)(=O)[O-])cc(OS(=O)(=O)[O-])c2)cc1.[K+].[K+].[K+] = FALSE

Test whether the compound Oc1ccc(/C=C/c2cc(O)cc(O)c2)cc1 records inhibition of 60% or higher.
TRUE

One more compound: O=S(=O)([O-])Oc1ccc(/C=C/c2cc(O)cc(OS(=O)(=O)[O-])c2)cc1.[K+].[K+]
FALSE

One more compound: O=S(=O)([O-])Oc1ccc(/C=C/c2cc(O)cc(O)c2)cc1.[K+]
TRUE

One more compound: O=S(=O)([O-])Oc1cc(/C=C/c2ccc(O)cc2)cc(OS(=O)(=O)[O-])c1.[K+].[K+]
FALSE

====

- assayMethodText: Antioxidant activity assessed as DPPH scavenging activity at 340 uM after 30 mins
- Assay type: functional
inhibition: recorded values
Please state the figure in %; there is no need to write the unit.

• O=S(=O)([O-])Oc1ccc(/C=C/c2cc(O)cc(O)c2)cc1.[K+] = 42.8

What measured inhibition goes with O=S(=O)([O-])Oc1cc(O)cc(/C=C/c2ccc(O)cc2)c1.[K+] ?
68

One more compound: O=S(=O)([O-])Oc1ccc(/C=C/c2cc(O)cc(OS(=O)(=O)[O-])c2)cc1.[K+].[K+]
6.8

One more compound: O=S(=O)([O-])Oc1ccc(/C=C/c2cc(OS(=O)(=O)[O-])cc(OS(=O)(=O)[O-])c2)cc1.[K+].[K+].[K+]
0.4

One more compound: O=S(=O)([O-])Oc1cc(/C=C/c2ccc(O)cc2)cc(OS(=O)(=O)[O-])c1.[K+].[K+]
14.5

====

- testedSystem: Nitric oxide synthase, inducible (Mus musculus, UniProt P29477)
- Sequence (P29477 whole entry): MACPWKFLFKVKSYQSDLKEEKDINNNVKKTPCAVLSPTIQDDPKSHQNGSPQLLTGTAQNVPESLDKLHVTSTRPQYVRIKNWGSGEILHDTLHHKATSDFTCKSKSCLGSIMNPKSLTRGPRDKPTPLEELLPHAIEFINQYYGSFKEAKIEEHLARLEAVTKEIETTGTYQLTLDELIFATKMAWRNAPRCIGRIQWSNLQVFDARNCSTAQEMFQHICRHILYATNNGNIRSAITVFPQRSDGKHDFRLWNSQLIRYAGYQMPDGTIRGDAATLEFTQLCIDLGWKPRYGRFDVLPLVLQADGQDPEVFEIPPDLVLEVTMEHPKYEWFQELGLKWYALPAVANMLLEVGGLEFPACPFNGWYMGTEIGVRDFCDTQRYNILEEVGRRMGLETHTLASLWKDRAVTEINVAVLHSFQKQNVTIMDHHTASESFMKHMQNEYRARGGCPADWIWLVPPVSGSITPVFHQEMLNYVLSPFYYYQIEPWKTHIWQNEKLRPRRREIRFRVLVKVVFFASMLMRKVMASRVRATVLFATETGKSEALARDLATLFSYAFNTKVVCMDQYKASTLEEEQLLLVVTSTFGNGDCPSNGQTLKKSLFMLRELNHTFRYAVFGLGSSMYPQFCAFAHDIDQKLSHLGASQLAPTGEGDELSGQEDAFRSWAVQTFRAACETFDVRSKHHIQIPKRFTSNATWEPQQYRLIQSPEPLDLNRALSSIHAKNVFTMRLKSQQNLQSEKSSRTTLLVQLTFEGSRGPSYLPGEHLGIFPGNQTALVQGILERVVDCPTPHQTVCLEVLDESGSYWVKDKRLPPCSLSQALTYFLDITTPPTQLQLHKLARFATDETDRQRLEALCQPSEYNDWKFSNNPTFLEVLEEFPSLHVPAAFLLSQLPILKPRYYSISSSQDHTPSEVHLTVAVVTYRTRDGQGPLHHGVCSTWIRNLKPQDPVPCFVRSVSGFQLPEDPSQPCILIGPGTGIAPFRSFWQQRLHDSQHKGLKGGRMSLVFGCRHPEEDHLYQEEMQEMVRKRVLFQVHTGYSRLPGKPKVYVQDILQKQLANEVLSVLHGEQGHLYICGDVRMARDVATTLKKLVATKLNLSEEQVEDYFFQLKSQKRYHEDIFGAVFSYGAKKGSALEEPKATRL
experimentalReadout: pIC50
Friendly reminder that pIC50 comes from taking -log10 of the concentration in mol/L.

What measured pIC50 goes with Oc1ccc(/C=C/c2cc(O)cc(O)c2)cc1 ?
4.82
